Reference source: patent US10793538B2

Target: HDAC2 (Homo sapiens, UniProt Q92769)
Construct: purchased BPS Bioscience
Sequence (Q92769 whole entry): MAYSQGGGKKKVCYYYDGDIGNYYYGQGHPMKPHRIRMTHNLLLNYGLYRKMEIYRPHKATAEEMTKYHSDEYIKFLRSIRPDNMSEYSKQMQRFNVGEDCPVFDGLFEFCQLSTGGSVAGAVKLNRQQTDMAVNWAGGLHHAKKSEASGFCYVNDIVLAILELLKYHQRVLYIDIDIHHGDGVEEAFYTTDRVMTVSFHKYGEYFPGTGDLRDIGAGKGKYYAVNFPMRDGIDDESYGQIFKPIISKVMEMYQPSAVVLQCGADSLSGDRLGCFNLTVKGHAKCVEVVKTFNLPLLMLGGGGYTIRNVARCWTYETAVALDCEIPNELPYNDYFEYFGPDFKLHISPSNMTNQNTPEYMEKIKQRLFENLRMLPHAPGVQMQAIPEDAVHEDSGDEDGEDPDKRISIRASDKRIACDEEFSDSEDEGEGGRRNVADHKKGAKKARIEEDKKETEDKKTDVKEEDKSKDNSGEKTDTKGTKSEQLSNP
Assay: HDAC isoform inhibition, microfluidic lab-on-a-chip (Caliper) assay
Type: biochemical
Conditions: HDAC isoform 2; 2 μM FAM-labeled acetylated peptide substrate, 60 min, room temperature
observation-type: IC50 (µM)
Dear colleague, please return just the value in µM, with no unit written.

Result for O=C(NO)C1=CCCCC1 [Compound 19A, N-Hydroxycyclohex-1-Enecarboxamide] , tested on HDAC2 (Homo sapiens, UniProt Q92769), IC50: 1.4

Result for O=C(NO)C1=CCOCC1 [Compound 20A] , tested on HDAC2 (Homo sapiens, UniProt Q92769), IC50: 1.9

Result for Cc1ccc(S(=O)(=O)N2CC=C(C(=O)NO)CC2)cc1 [Compound 31A] , tested on HDAC2 (Homo sapiens, UniProt Q92769), IC50: 0.375

* * *

Target: HDAC3 (Homo sapiens, UniProt O15379)
Construct: purchased BPS Bioscience
Sequence (O15379 whole entry): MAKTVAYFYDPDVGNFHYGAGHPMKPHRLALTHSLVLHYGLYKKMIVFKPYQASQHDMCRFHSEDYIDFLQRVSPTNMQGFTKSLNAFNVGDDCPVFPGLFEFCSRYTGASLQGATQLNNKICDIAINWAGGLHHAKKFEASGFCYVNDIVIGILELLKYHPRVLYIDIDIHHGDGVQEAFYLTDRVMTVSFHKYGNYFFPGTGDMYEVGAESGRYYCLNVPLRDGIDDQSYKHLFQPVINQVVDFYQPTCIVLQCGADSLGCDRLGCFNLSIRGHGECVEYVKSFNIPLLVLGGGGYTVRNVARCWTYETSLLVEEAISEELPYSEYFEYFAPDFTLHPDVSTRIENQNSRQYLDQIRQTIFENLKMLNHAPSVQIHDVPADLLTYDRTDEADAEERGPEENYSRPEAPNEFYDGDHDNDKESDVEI
Sequence (Q9Y618 395-489 partner limits assumed): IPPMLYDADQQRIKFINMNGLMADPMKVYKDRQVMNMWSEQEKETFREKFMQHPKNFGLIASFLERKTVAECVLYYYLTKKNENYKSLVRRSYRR
Test: HDAC isoform inhibition, microfluidic lab-on-a-chip (Caliper) assay
Assay type: biochemical
Settings: HDAC isoform 3; 2 μM FAM-labeled acetylated peptide substrate, 60 min, room temperature
In this section we review reported IC50 values for a set of compounds.

Record excerpt, results attached:
{"compound": "CN1CCC=C(C(=O)NO)C1 [Compound 30A]", "IC50": "> 33 µM"}
{"compound": "COc1ccc(C(=O)N2CCC=C(C(=O)NO)C2)cc1 [Compound 12A]", "IC50": "> 33 µM"}

// field: IC50; key: O=C(NO)C1=C[C@@H](O)[C@@H](O)[C@H](O)C1 [Compound 22A] ; value = > 33 µM

* * *

In this section we review reported IC50 values for a set of compounds.
Target: HDAC5 (Homo sapiens, UniProt Q9UQL6)
Construct: purchased BPS Bioscience
Sequence (Q9UQL6 whole entry): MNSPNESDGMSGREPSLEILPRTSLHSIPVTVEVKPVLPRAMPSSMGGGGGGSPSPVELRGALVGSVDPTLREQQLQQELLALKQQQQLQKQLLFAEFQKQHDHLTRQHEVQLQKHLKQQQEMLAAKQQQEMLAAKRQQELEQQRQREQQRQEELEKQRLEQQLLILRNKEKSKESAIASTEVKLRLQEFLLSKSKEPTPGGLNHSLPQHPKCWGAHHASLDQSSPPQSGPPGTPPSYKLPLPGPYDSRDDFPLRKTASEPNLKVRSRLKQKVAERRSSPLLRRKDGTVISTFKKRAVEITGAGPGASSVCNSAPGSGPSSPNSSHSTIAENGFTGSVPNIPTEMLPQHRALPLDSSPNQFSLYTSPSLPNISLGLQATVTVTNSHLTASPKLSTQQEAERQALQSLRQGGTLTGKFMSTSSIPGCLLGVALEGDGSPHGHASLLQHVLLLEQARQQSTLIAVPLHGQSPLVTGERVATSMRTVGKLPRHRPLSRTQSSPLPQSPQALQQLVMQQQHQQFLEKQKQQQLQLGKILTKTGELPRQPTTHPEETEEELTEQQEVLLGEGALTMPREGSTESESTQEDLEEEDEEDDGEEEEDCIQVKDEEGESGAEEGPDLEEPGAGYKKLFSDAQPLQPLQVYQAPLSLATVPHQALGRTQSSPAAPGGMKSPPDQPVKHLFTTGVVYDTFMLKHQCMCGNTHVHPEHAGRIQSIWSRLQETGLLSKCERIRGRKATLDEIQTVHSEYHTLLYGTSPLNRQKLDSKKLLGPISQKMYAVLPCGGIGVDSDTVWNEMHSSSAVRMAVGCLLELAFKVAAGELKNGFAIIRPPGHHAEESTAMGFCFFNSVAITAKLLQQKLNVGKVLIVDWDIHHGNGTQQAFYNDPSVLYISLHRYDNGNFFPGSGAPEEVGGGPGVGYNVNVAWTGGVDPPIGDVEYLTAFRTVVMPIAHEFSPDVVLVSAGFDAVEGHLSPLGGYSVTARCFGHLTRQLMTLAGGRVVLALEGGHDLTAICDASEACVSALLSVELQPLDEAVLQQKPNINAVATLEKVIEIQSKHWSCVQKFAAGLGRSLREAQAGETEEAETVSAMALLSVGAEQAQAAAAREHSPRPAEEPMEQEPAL
Assay: HDAC isoform inhibition, microfluidic lab-on-a-chip (Caliper) assay
Format: biochemical
Details: HDAC isoform 5; 2 μM FAM-labeled acetylated peptide substrate, 60 min, room temperature

Record excerpt, results attached:
{"compound": "O=C(NO)C1=CC(Sc2ccccc2)CCC1 (stereo not drawn) [Compound 10A]", "value-observed": "10.9 µM"}
{"compound": "O=C(NO)C1=CCCCC1 [Compound 19A, N-Hydroxycyclohex-1-Enecarboxamide]", "value-observed": "15.2 µM"}

Moving on to another compound below.
// field: IC50; key: CN1CCC=C(C(=O)NO)C1 [Compound 30A] ; value = > 33 µM
